- assay.summary: B16F10 melanoma tumour model
- recorded.conditions: C57BL/6, mouse, in vivo, po
property.label: MTD at 10 days (mg/kg)

Cc1sc2c(c1C)C(c1ccc(Cl)cc1)=N[C@@H](CC(=O)N1CC3(COC3)C1)c1nnc(C)n1-2 [Example 2]    120
Cc1sc2c(c1C)C(c1ccc(Cl)cc1)=N[C@@H](CC(=O)OC(C)(C)C)c1nnc(C)n1-2 [Example V1, reference compound]    55

====

- assay.summary: Plasma concentrations from in-vivo tests and PK parameters
- recorded.conditions: plasma, po; mouse, 100 mg/kg p.o., 6 h
property.label: concentration at 6 h (ng/mL)

Cc1sc2c(c1C)C(c1ccc(Cl)cc1)=N[C@@H](CC(=O)N1C3CCC1CC(=O)C3)c1nnc(C)n1-2    176
